Reported activity values are given for each entry in this list.
measurement_notes: caspase-8 TRAIL sensitization, hit retest, confirmation, cell-based, NB7+caspase-8, with/without TRAIL, luminescence panel (AID 651596)
particulars: NB7 neuroblastoma + caspase-8, without TRAIL, luminescence viability, without TRAIL, mean of runs, at 10 µM
quantity_name: activity (%)

compound: CCOC(=O)c1sc(N(Cc2ccccc2)C(=O)CCl)nc1C
unit_of_measurement: %
value: 76.5

compound: COc1ccc(-c2cc3ccc(OCc4nn[nH]n4)cc3oc2=O)cc1
unit_of_measurement: %
value: 56.2

compound: Cc1nc(-c2ccc(C(=O)Nc3cccc(F)c3)cc2)cs1
unit_of_measurement: %
value: 73.5

compound: Nc1nc(CCl)nc(Nc2ccc3ccccc3c2)n1
unit_of_measurement: %
value: 97.8

compound: COc1ccccc1NC(CC(=O)c1ccccc1)C(=O)OCC(=O)c1ccc(Br)cc1 (stereo not given)
unit_of_measurement: %
value: 57.2

compound: COC(=O)c1sc(NC(=O)c2cc(-c3ccccc3)nc3ccccc23)c(C#N)c1C
unit_of_measurement: %
value: 39.1

compound: c1csc(-c2ccc(N3CCOCC3)nn2)c1
unit_of_measurement: %
value: 69.4

compound: CCOc1ccc(/C=C/C(=O)Nc2cccc(C(C)=O)c2)cc1
unit_of_measurement: %
value: 37.2

compound: COc1cc(OC)cc(-c2cc3ccc(F)cc3cn2)c1
unit_of_measurement: %
value: 60.2

compound: COc1ccc2cc3cc(C(=O)NC4CC4)sc3nc2c1
unit_of_measurement: %
value: 81.4

compound: O=C(/C=C/c1ccccc1)NC(NC(=S)Nc1ccc(Cl)cc1)C(Cl)(Cl)Cl (stereo not given)
unit_of_measurement: %
value: 30.2

compound: Cc1ccc(/C=C(\C#N)c2nc3ccccc3[nH]2)s1
unit_of_measurement: %
value: 72

compound: O=C(/C=C/c1ccco1)Nc1scc(-c2ccccc2)c1C(=O)O
unit_of_measurement: %
value: 39.8

compound: COc1ccc(C(=O)O/N=C(\N)Cc2ccc(Cl)cc2)cc1OC
unit_of_measurement: %
value: 95.8

compound: Cc1cc(C(=O)Nc2sc3c(c2C#N)CCCC3)no1
unit_of_measurement: %
value: 52.5

compound: O=C(N/N=C/c1cccc([N+](=O)[O-])c1)c1ccc2c(c1)OCCO2
unit_of_measurement: %
value: 61.3

compound: COc1ccc(C(=O)N/N=C/c2cccnc2)cc1
unit_of_measurement: %
value: 40

compound: CC1CCN(c2ccc(-c3ccc(NC(=O)C(F)(F)F)cc3)nn2)CC1
unit_of_measurement: %
value: 96

compound: O=c1c2c(nc3cc(-c4ccc(F)cc4)[nH]n13)CCCC2
unit_of_measurement: %
value: 68.3

compound: Cc1nc2sc(-c3ccccc3)cc2c(=O)n1N
unit_of_measurement: %
value: 44.8

compound: CCn1cc(/C=C/C(=O)c2ccc(O)cc2)c(C)n1
unit_of_measurement: %
value: 57.5

compound: Cc1cc(-c2ccccc2)nc(Nc2nc3c(C)cccc3c(=O)[nH]2)n1
unit_of_measurement: %
value: 38

compound: O=C(Nc1ccc2nc(-c3ccco3)[nH]c2c1)c1cccs1
unit_of_measurement: %
value: 80.6

compound: Cn1nccc1C(=O)Oc1cccc(/C=N/NC(=O)c2ccccc2O)c1
unit_of_measurement: %
value: 13.6

compound: COc1ccc(CC(=O)Nc2cccc(-c3nnc(-c4ccccc4)o3)c2)cc1OC
unit_of_measurement: %
value: 59.8

compound: CC(C)C(=O)N1CCN(c2ccc(NC(=O)c3ccc([N+](=O)[O-])o3)cc2Cl)CC1
unit_of_measurement: %
value: 97.5

compound: Brc1ccc(-c2cn3ccccc3n2)s1
unit_of_measurement: %
value: 38.7

compound: O=C(Nc1ccc(Cl)cc1)Nc1ccccc1C(=O)O
unit_of_measurement: %
value: 45.1

compound: Nc1nc(N)c2cc(Sc3ccc4ccccc4c3)ccc2n1
unit_of_measurement: %
value: 73.9

compound: COc1ccc(CC(N)c2csc(NC(=O)Nc3ccc(C(C)C)cc3)n2)cc1 (stereo not given)
unit_of_measurement: %
value: 97.2

compound: COc1cccc(C(=O)Cn2c(=N)n(C)c3ccccc32)c1
unit_of_measurement: %
value: 66.2

compound: NC(c1csc(NC(=O)Nc2cccc(C(F)(F)F)c2)n1)C1CCCCC1 (stereo not given)
unit_of_measurement: %
value: 94.9

compound: COc1ccccc1C/C(N)=N/OC(=O)c1cccc([N+](=O)[O-])c1
unit_of_measurement: %
value: 69.6

compound: CCOC(=O)CNC(=O)CSc1nnc(NC(=O)c2ccc(C)cc2)s1
unit_of_measurement: %
value: 92.5

compound: NC1=NC[C@H](CC2CCCCC2)N1CCc1cc(C(F)(F)F)cc(C(F)(F)F)c1
unit_of_measurement: %
value: 80
